- assay_system: panel of 442 kinases (Homo sapiens, UniProt O14730)
- Construct: purchased Ambit Biosciences (scanMAXX KINOMEscan)
- Sequence (O14730 whole entry): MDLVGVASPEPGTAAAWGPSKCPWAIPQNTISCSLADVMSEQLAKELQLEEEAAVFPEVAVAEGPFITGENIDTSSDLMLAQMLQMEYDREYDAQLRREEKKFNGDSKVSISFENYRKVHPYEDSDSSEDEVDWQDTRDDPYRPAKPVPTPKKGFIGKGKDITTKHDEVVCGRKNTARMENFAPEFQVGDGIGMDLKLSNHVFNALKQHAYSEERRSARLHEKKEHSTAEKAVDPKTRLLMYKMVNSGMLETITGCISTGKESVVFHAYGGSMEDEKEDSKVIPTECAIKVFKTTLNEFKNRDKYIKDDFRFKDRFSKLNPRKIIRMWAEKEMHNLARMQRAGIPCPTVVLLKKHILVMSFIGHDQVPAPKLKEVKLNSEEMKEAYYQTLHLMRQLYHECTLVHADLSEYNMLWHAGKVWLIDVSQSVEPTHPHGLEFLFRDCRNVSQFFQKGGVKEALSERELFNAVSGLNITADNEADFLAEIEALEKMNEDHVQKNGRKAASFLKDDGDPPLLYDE
- assay: biochemical
- Type: binding
- reported_conditions: kinase RIOK3; 1 µM; read-out: RIOK3 (% of control at 1 µM)
Here, each record is paired with measured remaining activity at 1 µM data.
quantity_kind: remaining activity at 1 µM (%)

• Nc1cc(C(F)(F)F)c(-c2cc(N3CCOCC3)nc(N3CCOCC3)n2)cn1 = 95
• COc1ncc(-c2ccc3nccc(-c4ccnnc4)c3c2)cc1NS(=O)(=O)c1ccc(F)cc1F = 95
• Cn1c(=O)n(-c2ccc(C(C)(C)C#N)cc2)c2c3cc(-c4cnc5ccccc5c4)ccc3ncc21 = 70
• FC(F)c1nc2ccccc2n1-c1nc(N2CCOCC2)nc(N2CCOCC2)n1 = 71

* * *

- assay_system: panel of 442 kinases (Homo sapiens)
- Construct: purchased Ambit Biosciences (scanMAXX KINOMEscan)
- assay: biochemical
- Format: binding
- reported_conditions: kinase STK35; 1 µM; read-out: STK35 (% of control at 1 µM)
Here, each record is paired with measured remaining activity at 1 µM data.
quantity_kind: remaining activity at 1 µM (%)

* Nc1cc(C(F)(F)F)c(-c2cc(N3CCOCC3)nc(N3CCOCC3)n2)cn1 | 99
* COc1ncc(-c2ccc3nccc(-c4ccnnc4)c3c2)cc1NS(=O)(=O)c1ccc(F)cc1F | 100
* Cn1c(=O)n(-c2ccc(C(C)(C)C#N)cc2)c2c3cc(-c4cnc5ccccc5c4)ccc3ncc21 | 73
* FC(F)c1nc2ccccc2n1-c1nc(N2CCOCC2)nc(N2CCOCC2)n1 | 89

* * *

Here, each record is paired with measured remaining activity at 1 µM data.
- assay_system: panel of 442 kinases (Homo sapiens)
- Construct: purchased Ambit Biosciences (scanMAXX KINOMEscan)
- assay: biochemical
- Assay type: binding
- reported_conditions: kinase TIE2; 1 µM; read-out: TIE2 (% of control at 1 µM)
quantity_kind: remaining activity at 1 µM

• FC(F)c1nc2ccccc2n1-c1nc(N2CCOCC2)nc(N2CCOCC2)n1 [ZSTK474] = 100%
• COc1ncc(-c2ccc3nccc(-c4ccnnc4)c3c2)cc1NS(=O)(=O)c1ccc(F)cc1F [Omipalisib] = 100%
• Cn1c(=O)n(-c2ccc(C(C)(C)C#N)cc2)c2c3cc(-c4cnc5ccccc5c4)ccc3ncc21 [Dactolisib] = 100%
• Nc1cc(C(F)(F)F)c(-c2cc(N3CCOCC3)nc(N3CCOCC3)n2)cn1 [Buparlisib] = 100%

* * *

- assay_system: panel of 442 kinases (Homo sapiens, UniProt P08069)
- Construct: purchased Ambit Biosciences (scanMAXX KINOMEscan)
- Sequence (P08069 31-1367): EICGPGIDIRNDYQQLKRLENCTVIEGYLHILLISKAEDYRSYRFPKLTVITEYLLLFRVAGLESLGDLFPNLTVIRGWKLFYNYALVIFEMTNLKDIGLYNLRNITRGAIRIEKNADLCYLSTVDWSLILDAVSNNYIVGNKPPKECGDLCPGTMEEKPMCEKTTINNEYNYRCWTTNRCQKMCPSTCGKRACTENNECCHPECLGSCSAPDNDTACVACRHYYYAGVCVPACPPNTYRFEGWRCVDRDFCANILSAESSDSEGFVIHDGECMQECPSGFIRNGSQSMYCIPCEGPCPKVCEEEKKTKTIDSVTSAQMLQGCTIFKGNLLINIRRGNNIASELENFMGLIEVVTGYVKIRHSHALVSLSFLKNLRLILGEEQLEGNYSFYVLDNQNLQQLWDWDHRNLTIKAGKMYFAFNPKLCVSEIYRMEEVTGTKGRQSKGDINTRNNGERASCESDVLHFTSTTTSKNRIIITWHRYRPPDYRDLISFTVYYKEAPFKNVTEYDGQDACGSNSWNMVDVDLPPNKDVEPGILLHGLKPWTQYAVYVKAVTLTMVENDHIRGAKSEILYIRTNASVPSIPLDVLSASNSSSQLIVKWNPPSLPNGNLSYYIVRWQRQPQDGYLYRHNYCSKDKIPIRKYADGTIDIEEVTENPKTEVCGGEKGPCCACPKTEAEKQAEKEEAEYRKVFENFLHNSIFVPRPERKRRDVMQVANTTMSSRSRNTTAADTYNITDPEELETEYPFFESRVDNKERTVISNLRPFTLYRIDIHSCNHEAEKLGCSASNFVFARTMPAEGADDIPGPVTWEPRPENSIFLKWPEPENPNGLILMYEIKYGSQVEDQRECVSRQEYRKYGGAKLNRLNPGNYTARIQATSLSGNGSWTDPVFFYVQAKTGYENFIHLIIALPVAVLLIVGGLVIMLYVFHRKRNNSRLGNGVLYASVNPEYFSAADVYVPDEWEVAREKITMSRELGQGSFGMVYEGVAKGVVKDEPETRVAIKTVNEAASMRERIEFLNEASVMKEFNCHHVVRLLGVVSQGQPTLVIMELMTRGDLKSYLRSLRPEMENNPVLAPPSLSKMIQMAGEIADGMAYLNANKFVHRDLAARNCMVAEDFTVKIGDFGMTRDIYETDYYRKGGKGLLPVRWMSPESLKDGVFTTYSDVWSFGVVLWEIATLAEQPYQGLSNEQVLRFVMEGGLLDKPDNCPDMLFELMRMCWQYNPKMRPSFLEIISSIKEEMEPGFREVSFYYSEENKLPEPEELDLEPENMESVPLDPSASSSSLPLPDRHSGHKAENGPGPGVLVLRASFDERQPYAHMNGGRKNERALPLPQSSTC
- assay: biochemical
- Format: binding
- reported_conditions: kinase IGF1R; 1 µM; read-out: % of control at 1 µM
quantity_kind: remaining activity at 1 µM (%)

* COc1ncc(-c2ccc3nccc(-c4ccnnc4)c3c2)cc1NS(=O)(=O)c1ccc(F)cc1F | 100
* Nc1cc(C(F)(F)F)c(-c2cc(N3CCOCC3)nc(N3CCOCC3)n2)cn1 | 100
* FC(F)c1nc2ccccc2n1-c1nc(N2CCOCC2)nc(N2CCOCC2)n1 | 100
* Cn1c(=O)n(-c2ccc(C(C)(C)C#N)cc2)c2c3cc(-c4cnc5ccccc5c4)ccc3ncc21 | 95

* * *

- assay_system: panel of 442 kinases (Homo sapiens, UniProt P00533, T790M)
- Construct: purchased Ambit Biosciences (scanMAXX KINOMEscan)
- Sequence (P00533 25-1210 T790M): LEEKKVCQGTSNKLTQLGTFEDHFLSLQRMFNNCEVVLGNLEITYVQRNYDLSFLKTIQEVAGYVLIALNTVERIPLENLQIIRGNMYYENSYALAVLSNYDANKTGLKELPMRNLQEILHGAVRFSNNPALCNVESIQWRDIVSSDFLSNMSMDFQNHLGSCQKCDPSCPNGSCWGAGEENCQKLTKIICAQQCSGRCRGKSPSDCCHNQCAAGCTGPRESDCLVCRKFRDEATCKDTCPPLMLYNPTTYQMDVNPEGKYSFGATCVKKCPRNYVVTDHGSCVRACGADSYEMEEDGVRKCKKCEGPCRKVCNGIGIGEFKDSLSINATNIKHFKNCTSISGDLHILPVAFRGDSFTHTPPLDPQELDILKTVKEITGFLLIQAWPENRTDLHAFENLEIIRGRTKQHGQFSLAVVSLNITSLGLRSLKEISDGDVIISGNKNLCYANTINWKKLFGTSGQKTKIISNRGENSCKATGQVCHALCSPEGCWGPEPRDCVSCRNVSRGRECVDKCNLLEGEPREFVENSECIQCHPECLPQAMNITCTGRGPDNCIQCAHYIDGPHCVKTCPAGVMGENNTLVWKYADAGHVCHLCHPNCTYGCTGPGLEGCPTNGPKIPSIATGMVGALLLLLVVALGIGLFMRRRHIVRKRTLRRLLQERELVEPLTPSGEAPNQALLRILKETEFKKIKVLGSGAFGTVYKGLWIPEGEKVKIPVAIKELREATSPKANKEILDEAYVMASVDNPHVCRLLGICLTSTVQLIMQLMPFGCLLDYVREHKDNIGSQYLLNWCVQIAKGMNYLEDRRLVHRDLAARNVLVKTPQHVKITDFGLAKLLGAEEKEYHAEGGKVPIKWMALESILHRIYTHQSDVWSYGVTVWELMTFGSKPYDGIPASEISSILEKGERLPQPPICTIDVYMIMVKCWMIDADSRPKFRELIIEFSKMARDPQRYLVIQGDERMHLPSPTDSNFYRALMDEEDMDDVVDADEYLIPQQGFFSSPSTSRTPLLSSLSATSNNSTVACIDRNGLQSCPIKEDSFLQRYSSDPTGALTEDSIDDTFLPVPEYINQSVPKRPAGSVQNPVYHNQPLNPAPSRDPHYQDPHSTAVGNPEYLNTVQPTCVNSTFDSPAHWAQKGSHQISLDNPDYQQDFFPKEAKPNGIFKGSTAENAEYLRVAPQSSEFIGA
- assay: biochemical
- Assay type: binding
- reported_conditions: EGFR(T790M); 1 µM; read-out: % of control at 1 µM
quantity_kind: remaining activity at 1 µM

- Cn1c(=O)n(-c2ccc(C(C)(C)C#N)cc2)c2c3cc(-c4cnc5ccccc5c4)ccc3ncc21: 100%
- FC(F)c1nc2ccccc2n1-c1nc(N2CCOCC2)nc(N2CCOCC2)n1: 100%
- Nc1cc(C(F)(F)F)c(-c2cc(N3CCOCC3)nc(N3CCOCC3)n2)cn1: 73%
- COc1ncc(-c2ccc3nccc(-c4ccnnc4)c3c2)cc1NS(=O)(=O)c1ccc(F)cc1F: 100%

* * *

- assay_system: panel of 442 kinases (Homo sapiens, UniProt Q8IVH8)
- Construct: purchased Ambit Biosciences (scanMAXX KINOMEscan)
- Sequence (Q8IVH8 whole entry): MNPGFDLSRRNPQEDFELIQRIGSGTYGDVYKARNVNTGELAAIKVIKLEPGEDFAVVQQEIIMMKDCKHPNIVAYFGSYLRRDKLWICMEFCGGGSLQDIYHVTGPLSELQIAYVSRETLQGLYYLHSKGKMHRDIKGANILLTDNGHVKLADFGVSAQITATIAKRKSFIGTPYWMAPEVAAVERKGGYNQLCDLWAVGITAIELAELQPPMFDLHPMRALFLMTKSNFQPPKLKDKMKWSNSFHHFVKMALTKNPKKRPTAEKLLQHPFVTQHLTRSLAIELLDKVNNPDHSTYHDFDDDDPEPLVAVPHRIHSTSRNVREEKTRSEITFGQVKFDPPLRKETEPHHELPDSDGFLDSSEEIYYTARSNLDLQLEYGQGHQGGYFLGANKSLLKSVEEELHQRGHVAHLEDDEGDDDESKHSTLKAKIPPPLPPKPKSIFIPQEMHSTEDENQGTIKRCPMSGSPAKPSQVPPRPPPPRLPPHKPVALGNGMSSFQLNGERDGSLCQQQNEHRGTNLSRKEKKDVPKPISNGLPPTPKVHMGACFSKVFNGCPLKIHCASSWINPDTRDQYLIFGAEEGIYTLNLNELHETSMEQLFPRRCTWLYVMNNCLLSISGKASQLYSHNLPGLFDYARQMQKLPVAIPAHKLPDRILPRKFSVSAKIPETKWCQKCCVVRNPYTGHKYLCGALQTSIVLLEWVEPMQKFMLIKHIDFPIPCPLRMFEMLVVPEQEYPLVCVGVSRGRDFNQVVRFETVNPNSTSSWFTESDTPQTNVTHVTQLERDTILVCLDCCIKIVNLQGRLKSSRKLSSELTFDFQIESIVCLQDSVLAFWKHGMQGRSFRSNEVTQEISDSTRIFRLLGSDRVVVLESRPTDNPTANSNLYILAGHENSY
- assay: biochemical
- Type: binding
- reported_conditions: kinase MAP4K3; 1 µM; read-out: % of control at 1 µM
Here, each record is paired with measured remaining activity at 1 µM data.
quantity_kind: remaining activity at 1 µM

* FC(F)c1nc2ccccc2n1-c1nc(N2CCOCC2)nc(N2CCOCC2)n1 [ZSTK474] | 87%
* Cn1c(=O)n(-c2ccc(C(C)(C)C#N)cc2)c2c3cc(-c4cnc5ccccc5c4)ccc3ncc21 [Dactolisib] | 30%
* COc1ncc(-c2ccc3nccc(-c4ccnnc4)c3c2)cc1NS(=O)(=O)c1ccc(F)cc1F [Omipalisib] | 85%
* Nc1cc(C(F)(F)F)c(-c2cc(N3CCOCC3)nc(N3CCOCC3)n2)cn1 [Buparlisib] | 93%

* * *

- assay_system: UniProt:P08684
pIC50: −log10 of the molar value.
quantity_kind: pIC50

• COc1cccc2c1nc(C(F)F)n2-c1nc(N2CCOCC2)nc(N2CCN(S(=O)(=O)CCN(C)C)CC2)n1 = < 4.60

* * *

- assay_system: panel of 442 kinases (Homo sapiens, UniProt O94806)
- Construct: purchased Ambit Biosciences (scanMAXX KINOMEscan)
- Sequence (O94806 whole entry): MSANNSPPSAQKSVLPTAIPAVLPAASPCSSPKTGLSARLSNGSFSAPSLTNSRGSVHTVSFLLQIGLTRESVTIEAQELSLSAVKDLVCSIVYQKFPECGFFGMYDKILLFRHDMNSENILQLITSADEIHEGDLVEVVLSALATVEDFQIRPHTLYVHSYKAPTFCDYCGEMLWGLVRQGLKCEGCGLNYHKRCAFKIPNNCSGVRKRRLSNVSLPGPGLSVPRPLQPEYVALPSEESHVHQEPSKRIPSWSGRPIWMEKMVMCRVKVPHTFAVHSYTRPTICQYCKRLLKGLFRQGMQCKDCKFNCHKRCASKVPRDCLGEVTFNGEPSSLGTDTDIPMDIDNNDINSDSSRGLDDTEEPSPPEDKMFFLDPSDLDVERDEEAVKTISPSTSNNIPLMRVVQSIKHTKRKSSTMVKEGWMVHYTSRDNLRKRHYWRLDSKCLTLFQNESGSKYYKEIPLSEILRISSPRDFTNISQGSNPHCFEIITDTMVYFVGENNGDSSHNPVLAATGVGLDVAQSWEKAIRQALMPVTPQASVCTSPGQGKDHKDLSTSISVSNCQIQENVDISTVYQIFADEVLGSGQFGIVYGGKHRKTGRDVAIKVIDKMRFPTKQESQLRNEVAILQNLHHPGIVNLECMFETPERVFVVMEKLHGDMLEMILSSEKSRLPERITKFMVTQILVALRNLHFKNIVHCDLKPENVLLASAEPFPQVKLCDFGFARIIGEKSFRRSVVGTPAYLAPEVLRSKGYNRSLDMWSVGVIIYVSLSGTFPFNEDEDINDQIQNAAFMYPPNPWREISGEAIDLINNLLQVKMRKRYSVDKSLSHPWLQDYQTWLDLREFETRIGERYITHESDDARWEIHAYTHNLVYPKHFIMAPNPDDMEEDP
- assay: biochemical
- Assay type: binding
- reported_conditions: kinase PRKD3; 1 µM; read-out: PRKD3 (% of control at 1 µM)
Here, each record is paired with measured remaining activity at 1 µM data.
quantity_kind: remaining activity at 1 µM (%)

- Cn1c(=O)n(-c2ccc(C(C)(C)C#N)cc2)c2c3cc(-c4cnc5ccccc5c4)ccc3ncc21: 100
- Nc1cc(C(F)(F)F)c(-c2cc(N3CCOCC3)nc(N3CCOCC3)n2)cn1: 94
- COc1ncc(-c2ccc3nccc(-c4ccnnc4)c3c2)cc1NS(=O)(=O)c1ccc(F)cc1F: 100
- FC(F)c1nc2ccccc2n1-c1nc(N2CCOCC2)nc(N2CCOCC2)n1: 100

* * *

- assay_system: panel of 442 kinases (Homo sapiens)
- Construct: purchased Ambit Biosciences (scanMAXX KINOMEscan)
- assay: biochemical
- Assay type: binding
- reported_conditions: ERN1; 1 µM; read-out: % of control at 1 µM
quantity_kind: remaining activity at 1 µM (%)

• Nc1cc(C(F)(F)F)c(-c2cc(N3CCOCC3)nc(N3CCOCC3)n2)cn1 = 100
• Cn1c(=O)n(-c2ccc(C(C)(C)C#N)cc2)c2c3cc(-c4cnc5ccccc5c4)ccc3ncc21 = 100
• FC(F)c1nc2ccccc2n1-c1nc(N2CCOCC2)nc(N2CCOCC2)n1 = 90
• COc1ncc(-c2ccc3nccc(-c4ccnnc4)c3c2)cc1NS(=O)(=O)c1ccc(F)cc1F = 73

* * *

- assay_system: panel of 442 kinases (Homo sapiens)
- Construct: purchased Ambit Biosciences (scanMAXX KINOMEscan)
- assay: biochemical
- Format: binding
- reported_conditions: kinase PIM2; 1 µM; read-out: % of control at 1 µM
quantity_kind: remaining activity at 1 µM (%)

- Cn1c(=O)n(-c2ccc(C(C)(C)C#N)cc2)c2c3cc(-c4cnc5ccccc5c4)ccc3ncc21: 100
- COc1ncc(-c2ccc3nccc(-c4ccnnc4)c3c2)cc1NS(=O)(=O)c1ccc(F)cc1F: 98
- FC(F)c1nc2ccccc2n1-c1nc(N2CCOCC2)nc(N2CCOCC2)n1: 100
- Nc1cc(C(F)(F)F)c(-c2cc(N3CCOCC3)nc(N3CCOCC3)n2)cn1: 91

* * *

- assay_system: panel of 442 kinases (Homo sapiens)
- Construct: purchased Ambit Biosciences (scanMAXX KINOMEscan)
- assay: biochemical
- Format: binding
- reported_conditions: ARK5; 1 µM; read-out: % of control at 1 µM
Here, each record is paired with measured remaining activity at 1 µM data.
quantity_kind: remaining activity at 1 µM

- COc1ncc(-c2ccc3nccc(-c4ccnnc4)c3c2)cc1NS(=O)(=O)c1ccc(F)cc1F: 100%
- FC(F)c1nc2ccccc2n1-c1nc(N2CCOCC2)nc(N2CCOCC2)n1: 100%
- Nc1cc(C(F)(F)F)c(-c2cc(N3CCOCC3)nc(N3CCOCC3)n2)cn1: 100%
- Cn1c(=O)n(-c2ccc(C(C)(C)C#N)cc2)c2c3cc(-c4cnc5ccccc5c4)ccc3ncc21: 32%

* * *

Here, each record is paired with measured remaining activity at 1 µM data.
- assay_system: panel of 442 kinases (Homo sapiens, UniProt Q9BZL6)
- Construct: purchased Ambit Biosciences (scanMAXX KINOMEscan)
- Sequence (Q9BZL6 1-878): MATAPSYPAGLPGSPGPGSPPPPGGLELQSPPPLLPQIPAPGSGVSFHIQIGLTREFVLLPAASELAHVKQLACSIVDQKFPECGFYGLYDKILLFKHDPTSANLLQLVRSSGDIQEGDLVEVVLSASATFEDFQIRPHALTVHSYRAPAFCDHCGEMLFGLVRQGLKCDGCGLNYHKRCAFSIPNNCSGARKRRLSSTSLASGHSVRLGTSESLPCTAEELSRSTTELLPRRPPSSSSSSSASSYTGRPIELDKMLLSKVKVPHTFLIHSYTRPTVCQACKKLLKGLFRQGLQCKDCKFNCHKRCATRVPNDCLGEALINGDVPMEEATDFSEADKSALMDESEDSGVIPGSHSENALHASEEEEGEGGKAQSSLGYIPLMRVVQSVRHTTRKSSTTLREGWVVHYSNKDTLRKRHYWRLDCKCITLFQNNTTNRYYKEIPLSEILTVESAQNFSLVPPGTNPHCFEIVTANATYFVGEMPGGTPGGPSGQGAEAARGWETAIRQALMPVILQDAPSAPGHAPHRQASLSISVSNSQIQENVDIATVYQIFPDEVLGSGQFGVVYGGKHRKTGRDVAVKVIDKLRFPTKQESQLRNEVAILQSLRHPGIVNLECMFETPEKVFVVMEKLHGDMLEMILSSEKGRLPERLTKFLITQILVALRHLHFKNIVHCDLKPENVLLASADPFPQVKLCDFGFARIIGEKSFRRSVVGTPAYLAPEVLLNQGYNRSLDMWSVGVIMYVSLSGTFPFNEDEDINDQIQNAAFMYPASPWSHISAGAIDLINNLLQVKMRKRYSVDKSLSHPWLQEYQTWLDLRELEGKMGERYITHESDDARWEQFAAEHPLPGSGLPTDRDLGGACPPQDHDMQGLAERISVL
- assay: biochemical
- Type: binding
- reported_conditions: kinase PRKD2; 1 µM; read-out: PRKD2 (% of control at 1 µM)
quantity_kind: remaining activity at 1 µM (%)

* FC(F)c1nc2ccccc2n1-c1nc(N2CCOCC2)nc(N2CCOCC2)n1 | 93
* Cn1c(=O)n(-c2ccc(C(C)(C)C#N)cc2)c2c3cc(-c4cnc5ccccc5c4)ccc3ncc21 | 93
* Nc1cc(C(F)(F)F)c(-c2cc(N3CCOCC3)nc(N3CCOCC3)n2)cn1 | 100
* COc1ncc(-c2ccc3nccc(-c4ccnnc4)c3c2)cc1NS(=O)(=O)c1ccc(F)cc1F | 100
